- assay-text: Molar enthalpy of transition or fusion
- condition-set: Crystal; DSC
Reported Molar enthalpy of transition or fusion by item:
assay-readout: Molar enthalpy of transition or fusion (kcal/mol)

>>> observed_measurement("OC[C@@H](O)[C@@H](O)[C@H](O)[C@H](O)CO [D-mannitol]")
13.8
>>> observed_measurement("OC[C@@H](O)[C@@H](O)CO [meso-1,2,3,4-butanetetrol]")
9.92
>>> observed_measurement("OC[C@@H](O)[C@H](O)[C@H](O)[C@@H](O)CO [dulcitol]")
15.5
>>> observed_measurement("OC[C@@H](O)[C@@H](O)[C@@H](O)CO [SRS-1,2,3,4,5-pentanepentol]")
8.44
>>> observed_measurement("OC[C@@H](O)[C@H](O)[C@@H](O)CO [xylitol]")
9.13

* * *

Reported Normal melting temperature by item:
- condition-set: Crystal; Infrared thermography
assay-readout: Normal melting temperature (°C)

>>> observed_measurement("OC[C@@H](O)[C@@H](O)CO")
121.20
>>> observed_measurement("OC[C@@H](O)[C@H](O)[C@H](O)[C@@H](O)CO")
189.50
>>> observed_measurement("OC[C@@H](O)[C@@H](O)[C@@H](O)CO")
101.60
>>> observed_measurement("OC[C@@H](O)[C@H](O)[C@@H](O)CO")
99.00
>>> observed_measurement("OC[C@@H](O)[C@@H](O)[C@H](O)[C@H](O)CO")
166.00
